Tested on: RDEB dermal fibroblasts EB71
Test: day of extracellular matrix detachment from plate (days); higher = delayed detachment (less fibrotic matrix)
Conditions: compound concentration: 10 uM
Whole data set: some 1,100 compounds, median “day of extracellular matrix detachment from plate” near 16, cut for the lowest 2% near 10. For the sample, the lowest values were picked, then their nearest neighbours and some compounds at random. Where a SMILES comes first, the peptide text is derived from it. Bridges are numbered along the chain shown (N, C = ends). [ ]: non-standard residue; d: D form. Orn = NCCC[C@H](N)C(=O)O; Mpa = O=C(O)CCS
# day of extracellular matrix detachment from plate values compiled below
TEST READOUT: day of extracellular matrix detachment from plate

- MOLECULE: "CC[C@@H]1/C=C(\\C)C[C@H](C)C[C@H](OC)[C@H]2O[C@@](O)(C(=O)C(=O)N3CCCC[C@H]3C(=O)O[C@H](/C(C)=C/[C@@H]3CC[C@H](Cl)[C@H](OC)C3)[C@H](C)[C@@H](O)CC1=O)[C@H](C)C[C@@H]2OC [Pimecrolimus]"
  VALUE REPORTED: 17.7
- MOLECULE: "CCOc1ccc(C[C@H]2NC(=O)CCSSC[C@@H](C(=O)N3CCC[C@H]3C(=O)N[C@@H](CCCN)C(=O)NCC(N)=O)NC(=O)[C@H](CC(N)=O)NC(=O)[C@H]([C@@H](C)O)NC(=O)[C@H]([C@@H](C)CC)NC2=O)cc1 [Atosiban Acetate] ([Mpa][dY](Et)ITNCP[Orn]G-NH2; disulfide 1-6)"
  VALUE REPORTED: 19
